test_method_notes: Pharmacokinetic test in monkeys (intravenous)
Format: in vivo
assay_setup: male, cynomolgus monkey, i.v. 2 mg/kg, plasma
value_type: half-life (min)
Numbers only, in min.

Q: Quick one: half-life of Cc1ncsc1-c1ccc([C@H](C)NC(=O)[C@@H]2C[C@@H](O)CN2C(=O)[C@@H](NC(=O)CCCCCC(=O)N2CCN(CC[C@H](CSc3ccccc3)Nc3ccc(S(=O)(=O)NC(=O)c4ccc(N5CCN(CC6=C(c7ccc(Cl)cc7)CCCCC6)CC5)cc4)cc3S(=O)(=O)C(F)(F)F)CC2)C(C)(C)C)cc1 ?
A: 590

====

test_method_notes: Pharmacokinetic test in monkeys (intravenous)
Format: in vivo
assay_setup: male, cynomolgus monkey, i.v. 2 mg/kg, plasma
value_type: AUC(0-t) (ng·h/mL)
Give bare numbers, in ng·h/mL.

Q: Data request, read-out AUC(0-t), for Cc1ncsc1-c1ccc([C@H](C)NC(=O)[C@@H]2C[C@@H](O)CN2C(=O)[C@@H](NC(=O)CCCCCC(=O)N2CCN(CC[C@H](CSc3ccccc3)Nc3ccc(S(=O)(=O)NC(=O)c4ccc(N5CCN(CC6=C(c7ccc(Cl)cc7)CCCCC6)CC5)cc4)cc3S(=O)(=O)C(F)(F)F)CC2)C(C)(C)C)cc1
A: 54600

====

Could you please report measured DC50 for the items listed next?
study_system: BCL-xL proteins (Homo sapiens)
Construct: degradation effect on the BCL-xL proteins in MOLT-4 cells; host or cells: MOLT-4
Sequence (Q07817 whole entry): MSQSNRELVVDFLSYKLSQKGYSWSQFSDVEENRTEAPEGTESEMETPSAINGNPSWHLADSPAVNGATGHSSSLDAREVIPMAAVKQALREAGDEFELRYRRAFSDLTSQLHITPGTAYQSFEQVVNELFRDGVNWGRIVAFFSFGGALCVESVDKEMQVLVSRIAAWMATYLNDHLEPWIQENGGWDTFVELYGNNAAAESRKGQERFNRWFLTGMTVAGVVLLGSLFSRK
test_method_notes: BCL-xL degradation activity in MOLT-4 cells (western blot, 16 h)
Format: cell-based
Give bare numbers, in nM.

Cc1ncsc1-c1ccc([C@H](C)NC(=O)[C@@H]2C[C@@H](O)CN2C(=O)[C@@H](NC(=O)CCCCCC(=O)N2CCN(CC[C@H](CSc3ccccc3)Nc3ccc(S(=O)(=O)NC(=O)c4ccc(N5CCN(CC6=C(c7ccc(Cl)cc7)CCC7(CC7)C6)CC5)cc4)cc3S(=O)(=O)C(F)(F)F)CC2)C(C)(C)C)cc1	5.3
Cc1ncsc1-c1ccc([C@H](C)NC(=O)[C@@H]2C[C@@H](O)CN2C(=O)[C@@H](NC(=O)CCCCCC(=O)N2C[C@H]3C[C@@H]2CN3CC[C@H](CSc2ccccc2)Nc2ccc(S(=O)(=O)NC(=O)c3ccc(N4CCN(CC5=C(c6ccc(Cl)cc6)CCC6(CC6)C5)CC4)cc3)cc2S(=O)(=O)C(F)(F)F)C(C)(C)C)cc1	10.7
Cc1ncsc1-c1ccc([C@H](C)NC(=O)[C@@H]2C[C@@H](O)CN2C(=O)[C@@H](NC(=O)CCCCCC(=O)N2C[C@H]3C[C@@H]2CN3CC[C@H](CSc2ccccc2)Nc2ccc(S(=O)(=O)NC(=O)c3ccc(N4CCN(CC5=C(c6ccc(Cl)cc6)CCC(C)(C)C5)CC4)cc3)cc2S(=O)(=O)C(F)(F)F)C(C)(C)C)cc1	3.7
Cc1ncsc1-c1ccc([C@H](C)NC(=O)[C@@H]2C[C@@H](O)CN2C(=O)[C@@H](NC(=O)CCCCCC(=O)N2CCN(CC[C@H](CSc3ccccc3)Nc3ccc(S(=O)(=O)NC(=O)c4ccc(N5CCN(CC6=C(c7ccc(Cl)cc7)CCCCC6)CC5)cc4)cc3S(=O)(=O)C(F)(F)F)CC2)C(C)(C)C)cc1	8.4
Cc1ncsc1-c1ccc([C@H](C)NC(=O)[C@@H]2C[C@@H](O)CN2C(=O)[C@@H](NC(=O)CCCCCC(=O)N2C[C@H]3CN(CC[C@H](CSc4ccccc4)Nc4ccc(S(=O)(=O)NC(=O)c5ccc(N6CCN(CC7=C(c8ccc(Cl)cc8)CCC(C)(C)C7)CC6)cc5)cc4S(=O)(=O)C(F)(F)F)C[C@H]3C2)C(C)(C)C)cc1	8.8
Cc1ncsc1-c1ccc([C@H](C)NC(=O)[C@@H]2C[C@@H](O)CN2C(=O)[C@@H](NC(=O)CCCCCC(=O)N2C[C@H]3CN(CC[C@H](CSc4ccccc4)Nc4ccc(S(=O)(=O)NC(=O)c5ccc(N6CCN(CC7=C(c8ccc(Cl)cc8F)CCC(C)(C)C7)CC6)cc5)cc4S(=O)(=O)C(F)(F)F)C[C@H]3C2)C(C)(C)C)cc1 (relative stereo)	8.1

Next item in the queue.
Q: Find the measured DC50: item Cc1ncsc1-c1ccc([C@H](C)NC(=O)[C@@H]2C[C@@H](O)CN2C(=O)[C@@H](NC(=O)CCCC(=O)N2C[C@H]3CN(CC[C@H](CSc4ccccc4)Nc4ccc(S(=O)(=O)NC(=O)c5ccc(N6CCN(CC7=C(c8ccc(Cl)cc8)CCC(C)(C)C7)CC6)cc5)cc4S(=O)(=O)C(F)(F)F)C[C@H]3C2)C(C)(C)C)cc1 , target or system BCL-xL proteins (Homo sapiens).
A: 3.6
